# ASSAYED_TARGET: sGC α1/β1 heterodimer (Homo sapiens (Human), UniProt Q02108+Q02153)
# Sequence (Q02108 whole entry): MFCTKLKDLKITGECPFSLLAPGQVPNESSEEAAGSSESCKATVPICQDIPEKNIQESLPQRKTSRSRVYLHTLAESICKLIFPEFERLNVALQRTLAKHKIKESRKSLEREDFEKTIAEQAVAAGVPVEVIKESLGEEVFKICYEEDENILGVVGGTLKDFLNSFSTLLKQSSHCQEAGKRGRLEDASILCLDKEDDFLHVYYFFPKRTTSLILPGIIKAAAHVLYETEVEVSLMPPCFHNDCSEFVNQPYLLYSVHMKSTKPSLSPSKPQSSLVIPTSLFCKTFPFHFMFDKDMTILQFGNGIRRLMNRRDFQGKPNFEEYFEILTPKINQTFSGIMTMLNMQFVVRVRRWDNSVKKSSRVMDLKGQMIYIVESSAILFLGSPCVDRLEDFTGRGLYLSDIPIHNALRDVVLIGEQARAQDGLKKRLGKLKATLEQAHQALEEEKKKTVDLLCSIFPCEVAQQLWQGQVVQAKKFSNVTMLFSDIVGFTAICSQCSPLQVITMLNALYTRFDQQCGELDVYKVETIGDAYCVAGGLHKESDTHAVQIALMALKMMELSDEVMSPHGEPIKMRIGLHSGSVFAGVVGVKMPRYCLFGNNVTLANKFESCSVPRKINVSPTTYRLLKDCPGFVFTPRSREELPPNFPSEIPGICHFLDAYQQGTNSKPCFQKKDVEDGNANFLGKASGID
# Sequence (Q02153 whole entry): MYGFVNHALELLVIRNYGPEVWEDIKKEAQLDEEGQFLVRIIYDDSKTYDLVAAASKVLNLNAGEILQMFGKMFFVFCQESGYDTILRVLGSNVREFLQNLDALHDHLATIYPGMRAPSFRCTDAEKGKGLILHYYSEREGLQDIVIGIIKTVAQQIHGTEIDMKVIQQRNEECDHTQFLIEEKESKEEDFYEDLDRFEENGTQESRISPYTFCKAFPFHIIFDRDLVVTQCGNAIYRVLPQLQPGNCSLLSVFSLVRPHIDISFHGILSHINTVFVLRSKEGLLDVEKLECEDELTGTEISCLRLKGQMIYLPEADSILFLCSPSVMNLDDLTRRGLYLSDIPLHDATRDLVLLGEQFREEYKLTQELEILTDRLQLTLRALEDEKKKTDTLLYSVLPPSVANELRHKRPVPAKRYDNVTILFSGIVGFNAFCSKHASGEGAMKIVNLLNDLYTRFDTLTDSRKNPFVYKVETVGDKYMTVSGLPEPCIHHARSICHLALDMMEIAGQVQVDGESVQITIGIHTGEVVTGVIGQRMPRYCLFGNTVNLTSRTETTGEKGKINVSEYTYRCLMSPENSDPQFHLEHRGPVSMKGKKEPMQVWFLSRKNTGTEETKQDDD
# EXPERIMENT_DESCRIPTION: Cell-based sGC functional assay (cyclic GMP assay for sGC activator: CASA assay)
# EXPERIMENTAL_CONDITIONS: CHO-K1, activity expressed as percentage of compound A (standard); CHO-K1/sGC cells; read-out: % Activation
EXPERIMENTAL_ENDPOINT: Emax (%)

These recorded examples may help you get a feel for the data.
MOLECULE	Emax [%]
CC1(c2ccc(/C=C/C(=O)O)cc2)C(=O)Nc2nc(-c3nn(Cc4ccccc4F)c4cc(Cl)ccc34)nc(N)c21 (stereo not shown) [Example 218A]	103
CC1(c2ccc(C(=O)O)cc2)C(=O)Nc2nc(-c3nn(Cc4ccccc4F)c4cc(Cl)ccc34)nc(N)c21 (stereo not shown) [Example 209B]	94.4
CC1(c2nc(-c3cccc(C(=O)O)c3)cs2)C(=O)Nc2nc(-c3nn(CCC(F)(F)C(F)(F)F)c4cc(Cl)ccc34)nc(N)c21 (stereo not shown) [Example 93A]	63
CC1(c2ccc(CC(=O)O)cc2)C(=O)Nc2nc(-c3nn(Cc4ccccc4F)c4ncccc34)nc(N)c21 (stereo not shown) [Example 114A]	108
CC1(c2nc(CCCC(=O)O)cs2)C(=O)Nc2nc(-c3nn(Cc4ccccc4F)c4cc(Cl)ccc34)nc(N)c21 (stereo not shown) [Example 49A]	91
CC(C)(Cc1csc([C@]2(C)C(=O)Nc3nc(-c4nn(CCCC(F)(F)F)c5nc(Cl)ccc45)nc(N)c32)n1)C(=O)O [Example 89B]	108
CC(C)(C)CCn1nc(-c2nc(N)c3c(n2)NC(=O)[C@@]3(C)c2ccc(CCC(=O)O)cc2)c2cccnc21 [Example 210B]	103
CC1(c2ccc(CCC(=O)O)cn2)C(=O)Nc2nc(-c3nn(CCC(F)(F)C(F)(F)F)c4cc(Cl)ccc34)nc(N)c21 (stereo not shown) [Example 119B]	103
CC1(c2nc(-c3ccc(C(=O)O)cc3)co2)C(=O)Nc2nc(-c3nn(Cc4ccccc4F)c4ncccc34)nc(N)c21 (stereo not shown) [Example 146A]	82.1
CC(C)(Cc1cccc(C2(C)C(=O)Nc3nc(-c4nn(CCC(F)(F)C(F)(F)F)c5cc(Cl)ccc45)nc(N)c32)c1)C(=O)O (stereo not shown) [Example 27B]	120

(I) CC1(c2ccc(CCC(=O)O)c(C#N)c2)C(=O)Nc2nc(-c3nn(CCC(F)(F)C(F)(F)F)c4cc(Cl)ccc34)nc(N)c21 (stereo not shown) [Example 120B]
(II) CC(C)(Cc1csc([C@]2(C)C(=O)Nc3nc(-c4nn(CC5CCCCO5)c5ncccc45)nc(N)c32)n1)C(=O)O (single isomer, unassigned) [Example 123AA]
Input line: Of I versus II , which is the one with smaller reported Emax? Returns: label corresponding to the selected item.
Output line: II
